Values compiled from the SangsterLogP compilation.

assay.endpoint: logP

{"compound": "CONC(=O)C(C(C)C)N(Cc1cccnc1)S(=O)(=O)c1ccc(I)cc1 (stereo not given)", "assay.endpoint": "logP", "observed.result": 3.11}
{"compound": "CONC(=O)[C@@H](C(C)C)N(Cc1cccnc1)S(=O)(=O)c1ccccc1Cl", "assay.endpoint": "logP", "observed.result": 2.01}
{"compound": "CONC(=O)[C@@H](C(C)C)N(Cc1cccnc1)S(=O)(=O)c1ccc(Cl)cc1", "assay.endpoint": "logP", "observed.result": 2.4}
{"compound": "CC(C)[C@H](C(=O)NO)N(Cc1cccnc1)S(=O)(=O)c1ccccc1F", "assay.endpoint": "logP", "observed.result": 1.65}
{"compound": "CC(C)[C@H](C(=O)NO)N(Cc1cccnc1)S(=O)(=O)c1ccc(I)cc1", "assay.endpoint": "logP", "observed.result": 2.45}
{"compound": "CC(C)[C@H](C(=O)NO)N(Cc1cccnc1)S(=O)(=O)c1ccc(F)cc1", "assay.endpoint": "logP", "observed.result": 1.4}
{"compound": "CC(C)C(C(=O)NO)N(Cc1cccnc1)S(=O)(=O)c1ccc(Br)cc1 (stereo not given)", "assay.endpoint": "logP", "observed.result": 1.91}
{"compound": "CC(C)[C@H](C(=O)NO)N(Cc1cccnc1)S(=O)(=O)c1ccc(Cl)cc1", "assay.endpoint": "logP", "observed.result": 1.81}
{"compound": "CONC(=O)[C@@H](C(C)C)N(Cc1cccnc1)S(=O)(=O)c1ccccc1F", "assay.endpoint": "logP", "observed.result": 2.67}
{"compound": "CC(C)C(C(=O)NO)N(Cc1cccnc1)S(=O)(=O)c1ccccc1Br (stereo not given)", "assay.endpoint": "logP", "observed.result": 1.54}

###

Rule: logP below 2 gives yes. Equal to or above 2 gives no.

{"mol.smiles": "CC(C)[C@H](C(=O)NO)N(Cc1cccnc1)S(=O)(=O)c1ccccc1Cl", "assigned.class": "yes"}
{"mol.smiles": "CC(C)[C@H](C(=O)NO)N(Cc1cccnc1)S(=O)(=O)c1cccc(Cl)c1", "assigned.class": "yes"}
{"mol.smiles": "CONC(=O)[C@@H](C(C)C)N(Cc1cccnc1)S(=O)(=O)c1ccc(Br)cc1", "assigned.class": "no"}
{"mol.smiles": "CONC(=O)[C@@H](C(C)C)N(Cc1cccnc1)S(=O)(=O)c1cccc(Cl)c1", "assigned.class": "no"}
{"mol.smiles": "CONC(=O)[C@@H](C(C)C)N(Cc1cccnc1)S(=O)(=O)c1ccccc1Br", "assigned.class": "no"}
{"mol.smiles": "CC(C)[C@H](C(=O)NO)N(Cc1cccnc1)S(=O)(=O)c1cccc(Br)c1", "assigned.class": "yes"}
